Recorded NHDF viability by entry
Tested on: Normal human dermal fibroblasts (NHDF)
protocol.text: In vitro phototoxicity test (neutral red) on NHDF
Format: cell-based
particulars: −UVA; 62.5 μmol/l
State the answer as a number, implicitly in % control.

Illustrative cases are given below, each with its answer.
Clc1nc(NCC2CCCO2)c2ncn(C3CCCO3)c2n1 (centres unmarked) [Compound 20]    102
c1csc(CNc2ncnc3c2ncn3C2CCCO2)c1 (centres unmarked) [Compound 9]    107.9
OCc1ccc(CNc2ncnc3c2ncn3C2CCCO2)o1 (centres unmarked) [Compound 3]    106.6
c1nc(NCC2CCCO2)c2ncn(C3CCCO3)c2n1 (centres unmarked) [Compound 1]    102.3

Now let's try a different one.
Challenge: Which NHDF viability value belongs to Clc1nc(NCc2ccco2)c2ncn(C3CCCO3)c2n1 (centres unmarked) [Compound 15] ?
Response given: 106.3

----------
System: HaCaT
protocol.text: In vitro phototoxicity test (neutral red) on HaCaT
Type: cell-based, human
particulars: −UVA; 125 μmol/l
Below, each of the molecules is paired with its reported HaCaT viability value.
Give your result in % control as a bare value.

Worked cases, answers included:
Clc1nc(NCC2CCCO2)c2ncn(C3CCCO3)c2n1 (stereo not shown)    110.5
Clc1nc(NCc2ccco2)c2ncn(C3CCCO3)c2n1 (stereo not shown)    105
c1csc(CNc2ncnc3c2ncn3C2CCCO2)c1 (stereo not shown)    103.4

Now look at this one.
Challenge: What HaCaT viability value was documented for this molecule, OCc1ccc(CNc2ncnc3c2ncn3C2CCCO2)o1 (stereo not shown) ?
Response given: 109.5

----------
Test system: HaCaT
protocol.text: In vitro phototoxicity test (neutral red) on HaCaT
Type: cell-based, human
particulars: −UVA; 7.8 μmol/l
compounds and their reported HaCaT viability
Write down the numeric answer in % control and omit the unit.

Completed entries (count: 3):
Clc1nc(NCc2ccco2)c2ncn(C3CCCO3)c2n1 (stereo not shown)    107.4
c1csc(CNc2ncnc3c2ncn3C2CCCO2)c1 (stereo not shown)    101.1
Clc1nc(NCC2CCCO2)c2ncn(C3CCCO3)c2n1 (stereo not shown)    102.9

Shifting focus to the compound that follows.
Challenge: Query: HaCaT viability; subject: OCc1ccc(CNc2ncnc3c2ncn3C2CCCO2)o1 (stereo not shown)
Response given: 100.4

----------
Tested on: HaCaT
protocol.text: In vitro phototoxicity test (neutral red) on HaCaT
Assay type: cell-based, human
particulars: −UVA; 15.6 μmol/l
Recorded HaCaT viability values for a group of compounds are listed next.
Express your answer in % control, writing the number without its unit.

Solved entries:
Clc1nc(NCC2CCCO2)c2ncn(C3CCCO3)c2n1 (stereo not shown)    104.1
Clc1nc(NCc2ccco2)c2ncn(C3CCCO3)c2n1 (stereo not shown)    108.6
OCc1ccc(CNc2ncnc3c2ncn3C2CCCO2)o1 (stereo not shown)    102.1

Let's switch to this compound now.
Challenge: Fill blank: measured HaCaT viability of the compound c1csc(CNc2ncnc3c2ncn3C2CCCO2)c1 (stereo not shown) is ____.
Response given: 100.4

----------
Tested on: HaCaT
protocol.text: In vitro phototoxicity test (neutral red) on HaCaT
Type: cell-based, human
particulars: +UVA 5.0 J/cm2; 7.8 μmol/l
Experimental: Spontaneously Immortalized Aneuploid Human Keratinocyte Cell Line (HaCaT) was bought from CLS (Eppeheim, Germany) and used as an in vitro model. […] Test substances included compounds number 3, 9, 15 and 20. […] Intensity of UVA radiation was evaluated before each irradiation by UVA-meter. […] After 24 hours (37° C., 5% CO2) cell damage was evaluated by neutral red (NR) incorporation into viable cells. […] After 5 minutes of intensive shaking absorbance was measured at 540 nm. […]
Below, each of the compounds is paired with its reported HaCaT viability value.

c1csc(CNc2ncnc3c2ncn3C2CCCO2)c1 (stereo not shown) [Compound 9]    124.2 % control
Clc1nc(NCC2CCCO2)c2ncn(C3CCCO3)c2n1 (stereo not shown) [Compound 20]    112.1 % control
OCc1ccc(CNc2ncnc3c2ncn3C2CCCO2)o1 (stereo not shown) [Compound 3]    111.08 % control

# input for lookup
Challenge: Recall the recorded HaCaT viability for Clc1nc(NCc2ccco2)c2ncn(C3CCCO3)c2n1 (stereo not shown) [Compound 15] with HaCaT and state it.
Response given: 119.9 % control
